Test system: MORC3 (CW)
assay: Histone peptide microarray
Format: binding, human
test context: MORC3 (CW), GST-tagged; arrays performed twice, n of 4
Where no end group is shown, it is not given here. [ ]: non-standard residue; d: D form. Arg(Me2a) = CN(C)C(=N)NCCC[C@H](N)C(=O)O; pS = N[C@@H](COP(=O)(O)O)C(=O)O
endpoint: Array Heatmap value (peptide array binding signal)

### Prompt Please give the measured Array Heatmap value (peptide array binding signal) for this substance: H2A.Z (1-19): H2AZ 1-19 (AGGKAGKDSGKAKTKAVSR; UniProt P0C0S5 2-20, looked up, fragment)
### Response 0.3781

### Prompt Please give the measured Array Heatmap value (peptide array binding signal) for this substance: H2AS1p + K5ac: H2A 1-17 ([pS]GRGK(Ac)QGGKARAKAKTR; UniProt P0C0S8 2-18, looked up, fragment)
### Response 0.3086

### Prompt Please give the measured Array Heatmap value (peptide array binding signal) for this substance: H4K12ac + KQ5,8,16,20: H4 1-23 (SGRGQGGQGLGK(Ac)GGAQRHRQVLR; UniProt P62805 2-24, looked up, variant K5Q K8Q K16Q K20Q)
### Response 0.3596

### Prompt Please give the measured Array Heatmap value (peptide array binding signal) for this substance: H2AS1p + R3me2a + K5ac: H2A 1-17 ([pS]G[Arg(Me2a)]GK(Ac)QGGKARAKAKTR; UniProt P0C0S8 2-18, looked up, fragment)
### Response 0.4152

---

System: CHD4 (PPCC)
assay: Histone peptide microarray
Type: binding, human
test context: CHD4 (PPCC), GST-tagged; arrays performed twice, n of 4
Where no end group is shown, it is not given here. [ ]: non-standard residue; d: D form. Arg(Me2a) = CN(C)C(=N)NCCC[C@H](N)C(=O)O; pS = N[C@@H](COP(=O)(O)O)C(=O)O
endpoint: Array Heatmap value (peptide array binding signal)

### Prompt Please give the measured Array Heatmap value (peptide array binding signal) for this substance: Myc-Tag: 1-10 (ILKKATAYIL; Myc epitope tag; UniProt P01106 410-419, looked up, fragment)
### Response 0.5842

### Prompt Please give the measured Array Heatmap value (peptide array binding signal) for this substance: H2AS1p + R3me2a + K5ac: H2A 1-17 ([pS]G[Arg(Me2a)]GK(Ac)QGGKARAKAKTR; UniProt P0C0S8 2-18, looked up, fragment)
### Response 0.5877

### Prompt Please give the measured Array Heatmap value (peptide array binding signal) for this substance: H4K12ac + KQ5,8,16,20: H4 1-23 (SGRGQGGQGLGK(Ac)GGAQRHRQVLR; UniProt P62805 2-24, looked up, variant K5Q K8Q K16Q K20Q)
### Response 0.5868

---

System: AIRE (PP)
assay: Histone peptide microarray
Format: binding, human
test context: AIRE (PP), GST-tagged; arrays performed twice, n of 4
Where no end group is shown, it is not given here.
endpoint: Array Heatmap value (peptide array binding signal)

### Prompt Quick check: Array Heatmap value (peptide array binding signal) on AIRE (PP), item H2AX (132-142): H2AX 132-142 (GKKATQASQEY; UniProt P16104 133-143, looked up, fragment) ?
### Response 0.4547

### Prompt Quick check: Array Heatmap value (peptide array binding signal) on AIRE (PP), item H2A.Z (1-19) (N-ac): H2AZ 1-19 (Ac-AGGKAGKDSGKAKTKAVSR; UniProt P0C0S5 2-20, looked up, fragment) ?
### Response 0.3861

### Prompt Quick check: Array Heatmap value (peptide array binding signal) on AIRE (PP), item Myc-Tag: 1-10 (ILKKATAYIL; Myc epitope tag; UniProt P01106 410-419, looked up, fragment) ?
### Response 0.3997
